# Tested on: S. aureus DSM 20231;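 note: OD595 on entry to stationary phase over no-drug wells; at most 1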
# measurement notes: fitness (endpoint OD595 vs no drug) (fraction); higher = more growth
# applied conditions: first compound 0.5 µg/mL; partner 1.25 µg/mL
Reported fitness is given for each of the following compounds.
measurement type: fitness

CCCCCCCCCC(=O)N[C@@H](Cc1c[nH]c2ccccc12)C(=O)N[C@H](CC(N)=O)C(=O)N[C@@H](CC(=O)O)C(=O)N[C@@H]1C(=O)NCC(=O)N[C@@H](CCCN)C(=O)N[C@@H](CC(=O)O)C(=O)N[C@H](C)C(=O)N[C@@H](CC(=O)O)C(=O)NCC(=O)N[C@H](CO)C(=O)N[C@@H]([C@H](C)CC(=O)O)C(=O)N[C@@H](CC(=O)c2ccccc2N)C(=O)O[C@@H]1C [Daptomycin] + COc1cccc2c1C(=O)c1c(O)c3c(c(O)c1C2=O)C[C@@](O)(C(=O)CO)C[C@@H]3O[C@H]1C[C@H](N)[C@H](O)[C@H](C)O1 [Doxorubicin]: 0.935
CCCCCCCCCC(=O)N[C@@H](Cc1c[nH]c2ccccc12)C(=O)N[C@H](CC(N)=O)C(=O)N[C@@H](CC(=O)O)C(=O)N[C@@H]1C(=O)NCC(=O)N[C@@H](CCCN)C(=O)N[C@@H](CC(=O)O)C(=O)N[C@H](C)C(=O)N[C@@H](CC(=O)O)C(=O)NCC(=O)N[C@H](CO)C(=O)N[C@@H]([C@H](C)CC(=O)O)C(=O)N[C@@H](CC(=O)c2ccccc2N)C(=O)O[C@@H]1C [Daptomycin] + C[n+]1ccc(-c2cc[n+](C)cc2)cc1 [Paraquat]: 0.942
CO/N=C(\C(=O)N[C@@H]1C(=O)N2C(C(=O)[O-])=C(C[N+]3(C)CCCC3)CS[C@H]12)c1csc(N)n1 [Cefepime] + Cc1ncc([N+](=O)[O-])n1CCO [Metronidazole]: 0.958

====

# Test system: B. subtilis 168;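 note: first quartile when negative (synergy) and third quartile when positive (antagonism)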
# measurement notes: Bliss interaction score (quartile over a dose matrix) (fitness difference); higher = more antagonism (negative = synergy)
Each entry below lists one item and its recorded Bliss interaction score value.
measurement type: Bliss interaction score

C[C@H]1COc2c(N3CCN(C)CC3)c(F)cc3c(=O)c(C(=O)O)cn1c23 [Levofloxacin] + CN(N=O)C(=O)N[C@@H](C=O)[C@@H](O)[C@H](O)[C@H](O)CO [Streptozotocin]: 0.0603
CN(C)C(=O)C(CCN1CCC(O)(c2ccc(Cl)cc2)CC1)(c1ccccc1)c1ccccc1 [Loperamide] + C/C(=C\C(=O)OCCCCCCCCC(=O)O)C[C@@H]1OC[C@H](C[C@@H]2O[C@H]2[C@@H](C)[C@H](C)O)[C@@H](O)[C@H]1O [Pseudomonic acid]: -0.0528

====

# Test system: B. subtilis 168;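 note: first quartile when negative (synergy) and third quartile when positive (antagonism)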
# measurement notes: Bliss interaction score (quartile over a dose matrix) (fitness difference); higher = more antagonism (negative = synergy)
measurement type: Bliss interaction score

CCCCCCCCCC(=O)N[C@@H](Cc1c[nH]c2ccccc12)C(=O)N[C@H](CC(N)=O)C(=O)N[C@@H](CC(=O)O)C(=O)N[C@@H]1C(=O)NCC(=O)N[C@@H](CCCN)C(=O)N[C@@H](CC(=O)O)C(=O)N[C@H](C)C(=O)N[C@@H](CC(=O)O)C(=O)NCC(=O)N[C@H](CO)C(=O)N[C@@H]([C@H](C)CC(=O)O)C(=O)N[C@@H](CC(=O)c2ccccc2N)C(=O)O[C@@H]1C [Daptomycin] + CC1=C\[C@@H](O)CC(=O)Cc2nc(co2)C(=O)N2CCC=C2C(=O)O[C@H](C(C)C)[C@H](C)/C=C/C(=O)NC\C=C\1 [Virginiamycin M1]: -0.0543

Taken from the supplement of paper PMC10627819.
